- targetOrTestSystem: T1, endogenous human PSMA (prostate-specific membrane antigen) expressed on LNCaP human prostate cancer cells (human, UniProt Q04609 1-750)
- T1 construct: whole, on cells; also called PSMA-expressing LNCaP cells
- T1 sequence (Q04609 whole entry): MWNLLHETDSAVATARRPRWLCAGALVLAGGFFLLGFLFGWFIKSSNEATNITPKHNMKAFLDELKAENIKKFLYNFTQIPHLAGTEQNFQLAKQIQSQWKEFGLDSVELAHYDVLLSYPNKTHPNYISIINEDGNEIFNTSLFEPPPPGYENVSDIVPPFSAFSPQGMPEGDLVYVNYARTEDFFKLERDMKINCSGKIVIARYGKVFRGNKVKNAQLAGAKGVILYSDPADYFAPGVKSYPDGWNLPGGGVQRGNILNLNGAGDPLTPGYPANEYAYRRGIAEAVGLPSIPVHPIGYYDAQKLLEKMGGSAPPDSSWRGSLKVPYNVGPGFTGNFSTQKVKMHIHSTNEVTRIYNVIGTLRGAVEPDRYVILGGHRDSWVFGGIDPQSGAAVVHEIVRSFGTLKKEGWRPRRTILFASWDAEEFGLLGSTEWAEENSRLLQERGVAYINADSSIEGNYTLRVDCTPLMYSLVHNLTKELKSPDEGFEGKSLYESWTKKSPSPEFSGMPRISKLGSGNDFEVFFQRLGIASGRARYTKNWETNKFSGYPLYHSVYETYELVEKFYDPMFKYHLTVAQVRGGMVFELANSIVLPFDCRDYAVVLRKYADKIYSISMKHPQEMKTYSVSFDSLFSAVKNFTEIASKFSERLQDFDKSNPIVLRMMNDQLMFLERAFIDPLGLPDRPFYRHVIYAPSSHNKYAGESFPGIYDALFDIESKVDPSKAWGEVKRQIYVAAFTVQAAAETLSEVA
- assayOverview: flow cytometry on LNCaP cells
The binders listed here are annotated with their pEC50.
Note on pEC50: it is the negative log10 of concentration, concentration in mol/L.

Illustrative cases are given below, each with its answer.
binder	observable	endpointValue
anti-PSMA antibody PSGH8 (antibody, V domains shown, Fully human IgG) VH: QVQLVQSGGGLVQPGGSLRLSCAASGFTFSSYWMSWVRQAPGKGLEWVANIKQDGSEKYYVDSVKGRFTISRDNAKNSLYLQMNSLRAEDTAVYYCARVWDYYYDSSGDAFDIWGQGTMVTVSS VL: DIVMTQSPSSLSASVGDRVTITCRASQGISSWLAWYQQKPGKAPKLLIYAASSLQSGVPSRFSGSGSGTDFTLTINSLQPEDFATYYCQQASGFPFTFGPGTKVDIK	pEC50	8.67
anti-PSMA antibody PSGF9 (antibody, V domains shown, Fully human IgG) VH: QVQLVQSGGGLVQPGGSLRLSCAASGFTFSSYWMSWVRQAPGKGLEWVANIKQDGSEKYYVDSVKGRFTISRDNAKNSLYLQMNSLRAEDTAVYYCARVWDYYYDSSGDAFDIWGQGTMVTVSS VL: AIQMTQSPSSVSASVGDRVTITCRASQGISSWLAWYQQKPGKAPKLLIYAASSLQSGVPSRFSGSGSGTDFTLTISSLQPEDIATYYCQESYSTPFTFGPGTKVDIK	pEC50	8.68

// switching to the query binder
QUERY: Query: pEC50; subject: anti-PSMA antibody PSGG6 (antibody, V domains shown, Fully human IgG) VH: QVQLVQSGGGLVQPGGSLRLSCAASGFTFSSYWMSWVRQAPGKGLEWVANIKQDGSEKYYVDSVKGRFTISRDNAKNSLYLQMNSLRAEDTAVYYCARVWDYYYDSSGDAFDIWGQGTMVTVSS VL: EIVLTQSPSSLSASVGDRVTITCRASQGISSYLAWYQQKPGKAPKLLIYAASTLQSGVPSRFSGSGSGTDFTLTISSLQPEDFATYYCQQLNSYPRGITFGQGTKLEIK
RESULT: 8.89
